# Target: UniProt P51532
# Sequence (P51532 whole entry): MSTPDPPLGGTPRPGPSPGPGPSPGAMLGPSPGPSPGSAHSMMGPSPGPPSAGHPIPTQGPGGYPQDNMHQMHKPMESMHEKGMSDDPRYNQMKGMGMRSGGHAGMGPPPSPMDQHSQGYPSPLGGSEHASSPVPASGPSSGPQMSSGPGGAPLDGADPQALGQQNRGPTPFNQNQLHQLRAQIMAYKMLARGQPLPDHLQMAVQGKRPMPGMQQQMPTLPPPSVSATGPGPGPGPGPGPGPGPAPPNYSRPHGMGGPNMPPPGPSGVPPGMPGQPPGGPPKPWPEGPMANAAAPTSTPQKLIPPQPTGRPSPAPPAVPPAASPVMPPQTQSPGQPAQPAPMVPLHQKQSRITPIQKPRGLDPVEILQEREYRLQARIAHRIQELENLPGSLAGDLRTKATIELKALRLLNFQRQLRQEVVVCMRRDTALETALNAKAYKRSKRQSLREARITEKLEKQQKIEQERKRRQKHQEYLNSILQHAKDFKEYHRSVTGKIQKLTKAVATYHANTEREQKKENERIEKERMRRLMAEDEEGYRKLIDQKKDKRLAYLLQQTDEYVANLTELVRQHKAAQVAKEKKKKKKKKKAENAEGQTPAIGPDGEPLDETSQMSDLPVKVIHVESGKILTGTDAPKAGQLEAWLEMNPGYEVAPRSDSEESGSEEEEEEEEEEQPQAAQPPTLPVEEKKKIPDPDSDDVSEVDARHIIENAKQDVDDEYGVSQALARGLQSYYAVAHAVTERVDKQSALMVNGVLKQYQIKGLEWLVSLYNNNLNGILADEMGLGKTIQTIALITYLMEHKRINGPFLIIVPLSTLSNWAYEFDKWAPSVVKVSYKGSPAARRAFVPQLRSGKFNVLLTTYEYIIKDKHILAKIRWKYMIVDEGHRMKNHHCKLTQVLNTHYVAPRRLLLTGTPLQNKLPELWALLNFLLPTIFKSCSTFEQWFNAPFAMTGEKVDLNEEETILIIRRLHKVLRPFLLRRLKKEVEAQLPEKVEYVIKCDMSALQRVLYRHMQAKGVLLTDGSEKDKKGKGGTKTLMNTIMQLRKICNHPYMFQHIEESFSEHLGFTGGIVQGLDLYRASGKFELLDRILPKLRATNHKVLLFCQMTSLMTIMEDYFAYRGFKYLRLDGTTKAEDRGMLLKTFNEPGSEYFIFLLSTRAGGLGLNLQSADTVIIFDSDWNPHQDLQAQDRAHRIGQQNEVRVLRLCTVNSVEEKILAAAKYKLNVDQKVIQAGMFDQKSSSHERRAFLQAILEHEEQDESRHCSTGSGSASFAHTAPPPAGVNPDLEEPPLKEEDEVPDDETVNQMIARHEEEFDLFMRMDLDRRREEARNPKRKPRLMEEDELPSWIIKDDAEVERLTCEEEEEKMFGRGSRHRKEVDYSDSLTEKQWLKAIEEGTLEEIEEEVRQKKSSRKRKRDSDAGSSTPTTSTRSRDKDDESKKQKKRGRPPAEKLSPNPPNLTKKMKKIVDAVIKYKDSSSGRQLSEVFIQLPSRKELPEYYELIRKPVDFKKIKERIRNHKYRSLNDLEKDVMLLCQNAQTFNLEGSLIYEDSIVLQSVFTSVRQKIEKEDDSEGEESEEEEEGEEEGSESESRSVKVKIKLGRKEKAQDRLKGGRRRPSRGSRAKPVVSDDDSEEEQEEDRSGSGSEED
# Method Description: ATPase catalytic activity assay (ADP-Glo), BRG-1
# Reported Conditions: 1 h, read-out: BRG1 Max % Inhibition, ADP-Glo, 30 nM BRG-1, 400 μM ATP

Compound | Result Units | Emax
C[C@@]1(C#N)COCc2ccc(C(=O)NCc3cc4nc(-c5ccnc(N6CC7CC7C6)n5)ccc4cn3)cc21 (stereo partly drawn) | % | 95
CN1CCN(c2nccc(-c3ccc4cnc(CNC(=O)c5ccc6c(c5)[C@](C)(F)COC6)cc4n3)n2)CC1=O | % | 88
C[C@@]1(C#N)COCc2ccc(C(=O)NCc3cc(OCc4ccc(C#N)cc4)ccn3)cc21 | % | 36
COc1cc(N2CCOCC2)ccc1-c1ccc2cnc(CNC(=O)c3ccc4c(c3)[C@](C)(C#N)COC4)cc2n1 | % | 67
COc1cc(F)cc2c1CCN(c1ccnc(CNC(=O)c3ccc4c(c3)[C@](C)(C#N)COC4)c1)C2 | % | 94
C[C@@]1(F)COCc2ncc(C(=O)NCc3cc4nc(-c5cccc(N6CCC6)n5)cnc4cn3)cc21 | % | 90
Cc1nccc(-c2ccc3cnc(CNC(=O)c4ccc5c(c4)[C@](C)(C#N)COC5)cc3n2)n1 | % | 67
Cn1ccc(-c2ccc3cnc(CNC(=O)c4ccc5c(c4)[C@](C)(C#N)COC5)cc3n2)n1 | % | 32
COc1ccncc1-c1ccc2cnc(CNC(=O)c3ccc4c(c3)[C@](C)(C#N)COC4)cc2n1 | % | 76
C[C@@]1(C#N)COCc2ccc(C(=O)NCc3cc(/C=C/c4ccccc4)ccn3)cc21 | % | 74
C[C@@]1(F)COCc2ccc(C(=O)NCc3cc(C#Cc4ccccc4)ccn3)cc21 | % | 64
C[C@@]1(C#N)COCc2ccc(C(=O)NCc3cc4nc(-c5ccn6nccc6c5)ccc4cn3)cc21 | % | 86
C[C@@]1(C#N)COCc2ccc(C(=O)NCc3cc4nc(-c5ccnc(C(F)F)n5)ccc4cn3)cc21 | % | 67
COC(=O)N1CCC(C#Cc2ccnc(CNC(=O)c3ccc4c(c3)[C@](C)(C#N)COC4)c2)CC1 | % | 31
C[C@@]1(C#N)COCc2ncc(C(=O)NCc3cc4nc(-c5cncc(C6CC6)n5)ccc4cn3)cc21 | % | 88

---

// values below are reported IC50
# Target: BRM (Homo sapiens)
# Method Description: ATPase catalytic activity assay (ADP-Glo), BRM
# Reported Conditions: BRM ATPase: IC50 (uM), 30 nM BRM, 400 μM ATP
Result Type: IC50

Compound | Target | Result Type | Meas Value
C[C@@]1(C#N)CCOc2ccc(C(=O)NCc3cc4nc(-c5ccccc5)sc4cn3)cc21 | BRM (Homo sapiens) | IC50 | > 1 µM
C[C@@]1(C#N)COCc2ccc(C(=O)NCc3cc(OCc4cccc(N5CCC5)c4)ccn3)cc21 | BRM (Homo sapiens) | IC50 | 0.1 to 0.5 µM
C[C@@]1(C#N)COCc2ccc(C(=O)NCc3cc(N4CCc5ccccc5CC4)ccn3)cc21 | BRM (Homo sapiens) | IC50 | 0.1 to 0.5 µM
CN(C)c1cccc(-c2ccc3nnc(CNC(=O)c4ccc5c(c4)[C@](C)(F)COC5)cc3n2)n1 | BRM (Homo sapiens) | IC50 | < 0.1 µM
C[C@@]1(C#N)COCc2ccc(C(=O)NCc3cc4nc(-c5ccncc5)ccc4cn3)cc21 | BRM (Homo sapiens) | IC50 | 0.1 to 0.5 µM
C[C@@]1(F)COCc2ccc(C(=O)NCc3cc4nc(-c5cccc(C6(O)CCOC6)n5)ccc4cn3)cc21 (stereo partly shown) | BRM (Homo sapiens) | IC50 | 0.1 to 0.5 µM
C[C@@]1(C#N)COCc2ccc(C(=O)NCc3cc([C@H]4C[C@H](c5ccccc5)C4)ccn3)cc21 | BRM (Homo sapiens) | IC50 | < 0.1 µM

---

# Target: BRM (Homo sapiens, UniProt P51531)
# Sequence (P51531 whole entry): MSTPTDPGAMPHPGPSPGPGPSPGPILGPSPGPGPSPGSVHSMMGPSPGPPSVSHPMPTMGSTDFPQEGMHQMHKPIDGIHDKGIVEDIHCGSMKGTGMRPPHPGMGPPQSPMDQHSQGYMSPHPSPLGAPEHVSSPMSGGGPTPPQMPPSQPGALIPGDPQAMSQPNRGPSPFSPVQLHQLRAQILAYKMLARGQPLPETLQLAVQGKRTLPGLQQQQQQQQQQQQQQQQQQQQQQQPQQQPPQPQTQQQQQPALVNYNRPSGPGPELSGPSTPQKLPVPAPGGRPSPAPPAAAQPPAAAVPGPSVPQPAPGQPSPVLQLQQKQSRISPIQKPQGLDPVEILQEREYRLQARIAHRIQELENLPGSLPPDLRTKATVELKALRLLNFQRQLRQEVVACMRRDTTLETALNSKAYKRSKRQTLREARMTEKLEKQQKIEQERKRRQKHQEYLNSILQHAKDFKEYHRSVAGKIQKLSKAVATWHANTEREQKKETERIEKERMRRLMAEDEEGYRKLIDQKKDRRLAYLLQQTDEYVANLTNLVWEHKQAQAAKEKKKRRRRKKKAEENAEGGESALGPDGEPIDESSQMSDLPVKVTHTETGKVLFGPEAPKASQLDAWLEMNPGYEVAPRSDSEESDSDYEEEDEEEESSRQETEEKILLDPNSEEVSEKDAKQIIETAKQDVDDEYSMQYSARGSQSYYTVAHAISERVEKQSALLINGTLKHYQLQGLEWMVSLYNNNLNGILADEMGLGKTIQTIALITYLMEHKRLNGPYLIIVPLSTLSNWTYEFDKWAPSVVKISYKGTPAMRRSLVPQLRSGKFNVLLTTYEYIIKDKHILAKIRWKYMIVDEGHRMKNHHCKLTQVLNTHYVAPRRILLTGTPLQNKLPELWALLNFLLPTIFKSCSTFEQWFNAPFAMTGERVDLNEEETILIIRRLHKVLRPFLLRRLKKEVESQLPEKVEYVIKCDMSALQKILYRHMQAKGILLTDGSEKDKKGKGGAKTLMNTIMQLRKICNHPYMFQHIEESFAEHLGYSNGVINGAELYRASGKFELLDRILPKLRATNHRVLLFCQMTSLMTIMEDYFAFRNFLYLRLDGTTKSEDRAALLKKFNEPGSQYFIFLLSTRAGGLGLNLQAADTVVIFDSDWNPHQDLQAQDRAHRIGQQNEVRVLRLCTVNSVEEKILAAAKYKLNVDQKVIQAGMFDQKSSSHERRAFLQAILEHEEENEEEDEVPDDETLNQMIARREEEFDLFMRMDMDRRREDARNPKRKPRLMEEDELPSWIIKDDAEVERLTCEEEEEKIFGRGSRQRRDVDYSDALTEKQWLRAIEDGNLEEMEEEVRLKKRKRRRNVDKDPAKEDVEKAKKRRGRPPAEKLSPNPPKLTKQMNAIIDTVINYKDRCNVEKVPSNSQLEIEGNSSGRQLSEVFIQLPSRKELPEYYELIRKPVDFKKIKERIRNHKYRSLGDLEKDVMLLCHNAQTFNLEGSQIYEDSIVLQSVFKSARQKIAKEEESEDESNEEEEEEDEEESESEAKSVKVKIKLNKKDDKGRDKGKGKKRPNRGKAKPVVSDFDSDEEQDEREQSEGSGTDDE
# Method Description: ATPase catalytic activity assay (ADP-Glo), BRM
# Reported Conditions: BRM ATPase: IC50 (uM), 30 nM BRM, 400 μM ATP

Smiles Record | IC50
C[C@@]1(C#N)COCc2ccc(C(=O)NCc3cc([C@H]4C[C@@H](c5cccc(C6CC6)n5)C4)ccn3)cc21 | < 0.1 µM
COc1cc(C(F)F)ccc1-c1ccc2cnc(CNC(=O)c3ccc4c(c3)[C@](C)(C#N)COC4)cc2n1 | < 0.1 µM
C[C@@]1(C#N)COCc2ccc(C(=O)NCc3ncc4ccc(-c5ccccc5)nc4c3F)cc21 | 0.1 to 0.5 µM
CN1CCC(C(=O)N2CCN(c3cccc(-c4ccc5cnc(CNC(=O)c6ccc7c(c6)[C@](C)(C#N)COC7)cc5n4)n3)CC2)CC1 | < 0.1 µM
C[C@@]1(F)COCc2ccc(C(=O)NCc3cc4nc(-c5cncc(C6CC6)n5)ccc4nn3)cc21 | < 0.1 µM
C[C@@]1(C#N)COCc2ccc(C(=O)NCc3cc4nc(-c5cncc(N6CC[C@H](F)C6)n5)ccc4cn3)cc21 | < 0.1 µM
C[C@@]1(C#N)COCc2ccc(C(=O)NCc3nccc(N4CCc5ccccc5C4)c3F)cc21 | 0.1 to 0.5 µM

---

// values below are reported IC50
# Target: BRM (Homo sapiens, UniProt P51531)
# Method Description: ATPase catalytic activity assay (ADP-Glo), BRM
# Reported Conditions: BRM ATPase: IC50 (uM), 30 nM BRM, 400 μM ATP

Compound | IC50
C[C@@]1(C#N)COCc2ccc(C(=O)NCc3cc4c(cn3)CCN(c3ccc(=O)n(C5CC5)n3)C4)cc21 | 0.1 to 0.5 µM
CCn1ccc2c(-c3ccc4cnc(CNC(=O)c5ccc6c(c5)[C@](C)(C#N)COC6)cc4n3)cccc21 | < 0.1 µM
COCC1CN(c2cncc(-c3ccc4cnc(CNC(=O)c5ccc6c(c5)[C@](C)(C#N)COC6)cc4n3)n2)C1 | < 0.1 µM
C[C@@]1(F)COCc2c(F)cc(C(=O)NCc3cc4nc(-c5ccccc5)ccc4cn3)cc21 | 0.1 to 0.5 µM
C[C@@]1(C#N)COCc2ccc(C(=O)NCc3cc4nc(-c5cncc(N6CC(F)(F)C6)n5)ccc4cn3)cc21 | 0.1 to 0.5 µM
C[C@@]1(C#N)COCc2ccc(C(=O)NCc3cc4cc(-c5ccnc(N6CCC6)n5)cnc4cn3)cc21 | < 0.1 µM
C[C@@]1(C#N)CCNc2ccc(C(=O)NCc3cc4nc(-c5ccccc5)sc4cn3)cc21 | > 1 µM
C[C@@]1(C#N)COCc2ccc(C(=O)NCc3cc4nc(-c5cnn(C6COC6)c5)ccc4cn3)cc21 | 0.1 to 0.5 µM
O=C(NCc1cc2nc(-c3cncc(C4CC4)n3)ccc2cn1)c1cnc2c(c1)[C@](F)(C(F)F)CCO2 | 0.1 to 0.5 µM
COC(=O)c1cccc(C#Cc2ccnc(CNC(=O)c3ccc4c(c3)[C@](C)(C#N)CCO4)c2)c1 | 0.1 to 0.5 µM
C[C@@]1(C#N)COCc2ccc(C(=O)NCc3cc4nc(-c5ccnc(C6CC6)n5)ccc4cn3)cc21 | < 0.1 µM
COc1cnn(C)c1-c1ccc2cnc(CNC(=O)c3ccc4c(c3)[C@](C)(C#N)COC4)cc2n1 | 0.1 to 0.5 µM
C[C@@]1(C#N)COCc2ccc(C(=O)NCc3cc4nc(-c5cncc(N6CC(F)C6)n5)ccc4cn3)cc21 | < 0.1 µM
COCCOCCNC(=O)c1cccc(-c2ccc3cnc(CNC(=O)c4ccc5c(c4)[C@](C)(C#N)COC5)cc3n2)c1 | 0.1 to 0.5 µM
C[C@@]1(C#N)COCc2ccc(C(=O)NCc3ncc4ccc(-c5cncc(C6CC6)n5)nc4c3F)cc21 | < 0.1 µM
C[C@@]1(C#N)COCc2ccc(C(=O)NCc3cc4nc(N5CCCN(C6CC6)C5=O)ccc4cn3)cc21 | 0.1 to 0.5 µM
COc1nn(C2CCOC2)cc1-c1ccc2cnc(CNC(=O)c3ccc4c(c3)[C@](C)(C#N)COC4)cc2n1 (some centres unmarked) | 0.1 to 0.5 µM
COc1ccccc1-c1ccc2cnc(CNC(=O)c3ccc4c(c3)[C@](C)(C#N)COC4)cc2n1 | < 0.1 µM
C[C@@]1(C#N)COCc2ccc(C(=O)NCc3cc4nc(-c5ccnc(C(F)F)n5)ccc4cn3)cc21 | 0.1 to 0.5 µM
Cc1nccc(-c2ccc3cnc(CNC(=O)c4ccc5c(c4)[C@](C)(C#N)COC5)cc3n2)n1 | 0.1 to 0.5 µM
Cn1cc2c(n1)CN(c1ccc3cnc(CNC(=O)c4ccc5c(c4)[C@](C)(C#N)COC5)cc3n1)CC2 | 0.1 to 0.5 µM
C[C@@]1(C#N)COCc2ccc(C(=O)NCc3cc(N4CCC5(C4)CN(c4ccccc4)C5)ccn3)cc21 | > 1 µM
C[C@@]1(C#N)COCc2ccc(C(=O)NCc3cc4nc(-n5cccn5)ccc4cn3)cc21 | 0.1 to 0.5 µM
CC(=O)N(C)c1cccc(-c2ccc3cnc(CNC(=O)c4ccc5c(c4)[C@](C)(C#N)COC5)cc3n2)n1 | 0.1 to 0.5 µM
COc1cc(C2COC2)ccc1-c1ccc2cnc(CNC(=O)c3ccc4c(c3)[C@](C)(C#N)COC4)cc2n1 | < 0.1 µM
C[C@@]1(F)COCc2ccc(C(=O)NCc3cc4nc(-c5cccc(C6(O)CCOCC6)n5)ccc4cn3)cc21 | 0.1 to 0.5 µM
C[C@@]1(O)COCc2ccc(C(=O)NCc3cc4nc(-c5ccccc5)ccc4cn3)cc21 | > 1 µM
C[C@@]1(C#N)COCc2ccc(C(=O)NCc3cc(N4CCC(O)(c5ccccc5)C4)ccn3)cc21 (some centres unmarked) | 0.1 to 0.5 µM
C[C@@]1(F)COCc2ccc(C(=O)NCc3cc4nc(-c5ccnc(N6CCN(C7COC7)CC6)n5)ccc4cn3)cc21 | < 0.1 µM

Attribution: patent US12441726B2
